Values were extracted from patent US10315998B2.

system: cucumber downy mildew (Pseudoperonospora cubensis (Berk. et Curt.) Rostov); test: Protective effect against cucumber downy mildew on potted plants; format: in vivo; conditions: grading 100-0 (100 no infection, 0 most serious infection), read-out: protectant activity against cucumber downy mildew
Measured Parameter: pest or weed control at 400 ppm (%)
Report the value in % with no unit label.

CCCC(C)Oc1cccc(NC(=O)c2sc(C(F)(F)F)nc2CC)c1C (centres unmarked) [Compound 111]
100
CCCCC(C)Oc1cccc(NC(=O)c2cn(C)nc2C(C)C)c1C (centres unmarked) [Compound 2]
100
Cc1c(NC(=O)c2c(C(F)(F)F)nn(C)c2Cl)cccc1OC(C)C [KC2, reference compound]
0
Cc1nn(C)cc1C(=O)Nc1cccc(OC(C)C)c1C [KC3, reference compound]
0
CCCCC(C)Oc1cccc(NC(=O)c2c(C)nn(C)c2Cl)c1C (centres unmarked) [Compound 4]
100

Reported pest or weed control at 400 ppm for CCCCC(C)Oc1cccc(NC(=O)c2sc(C)nc2C(F)(F)F)c1C (centres unmarked) [Compound 71] : what is it?
100

Try this molecule too: Cc1nc(C)c(C(=O)Nc2cccc(OC(C)C)c2)s1 [KC5, reference compound]
0

Try this molecule too: Cc1nn(C)c(Cl)c1C(=O)Nc1cccc(OC(C)C)c1C [KC4, reference compound]
0

Try this molecule too: CCCCC(C)Oc1cccc(NC(=O)c2cn(C)nc2C(F)(F)F)c1C (centres unmarked) [Compound 13]
100

Try this molecule too: Cc1c(NC(=O)c2cn(C)nc2C(F)(F)F)cccc1OC(C)C [KC1, reference compound]
0

Try this molecule too: CCCCC(C)Oc1cccc(NC(=O)c2c(C(F)F)nn(C)c2Cl)c1C (centres unmarked) [Compound 11]
85
